System: TK-10
Experiment: NCI tumour cell line growth inhibition, 48 h
Active and inactive are the calls of the source. Cut-off read from the data, not from the text of the source: active = GI50 up to about 1.1 µM and inactive = higher.
// values below are reported GI50

GI50 of CCN(CC)C(=S)N/N=C/c1cc(OC)ccc1O , assay on TK-10, is 4.3 µM (inactive)

GI50 of COc1nc(N)nc2c1n(C)c[n+]2C , assay on TK-10, is > 100 µM (inactive)

GI50 of CN(C)C(=S)/N=c1\ss/c(=N\c2ccccc2)n1-c1ccccc1 , assay on TK-10, is 25.8 µM (inactive)

Next:
GI50 of C[C@H](C1CC2(C)OC2(C)C(=O)O1)[C@H]1CC[C@H]2[C@@H]3[C@@H]4O[C@@H]4[C@@]4(O)CC=CC(=O)[C@]4(C)[C@H]3CC[C@]12C (stereo partly specified) , assay on TK-10, is > 50 µM (inactive)

GI50 of Nc1ccn(C2CCC(COP(=O)(O)OCC(O)COP(=O)(O)OCC3OC(n4cc(F)c(=O)[nH]c4=O)CC3O)O2)c(=O)n1 (stereo unspecified) , assay on TK-10, is 5.14 µM (inactive)

GI50 of N#CCCN(CCC#N)c1ccc(/C=N\c2ccc(F)cc2)cc1 , assay on TK-10, is > 24 µM (inactive)
